- TESTED_ON: Human M4 (Homo sapiens)
- Construct: expressed in transfected cells
- Sequence (P08173 whole entry): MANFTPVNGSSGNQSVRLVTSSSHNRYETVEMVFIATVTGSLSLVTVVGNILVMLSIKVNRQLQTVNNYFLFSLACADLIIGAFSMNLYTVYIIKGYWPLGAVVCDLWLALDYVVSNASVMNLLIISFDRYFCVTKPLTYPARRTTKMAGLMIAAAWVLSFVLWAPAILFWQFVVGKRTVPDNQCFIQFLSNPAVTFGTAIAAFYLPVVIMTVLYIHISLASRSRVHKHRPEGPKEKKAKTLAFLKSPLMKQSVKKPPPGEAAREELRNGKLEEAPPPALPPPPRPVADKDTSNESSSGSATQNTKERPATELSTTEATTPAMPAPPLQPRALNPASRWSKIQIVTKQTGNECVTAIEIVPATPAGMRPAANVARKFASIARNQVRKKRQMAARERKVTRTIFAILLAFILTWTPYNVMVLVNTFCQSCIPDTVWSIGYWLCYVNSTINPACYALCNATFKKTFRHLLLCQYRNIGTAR
- TEST: mAChR M4 cell-based functional assay (calcium flux, potentiation of EC20 acetylcholine response), hM4-Gqi5 CHO-K1 cells
- COND: CHO-K1; Table 4; Human M4; % ACh maximum at 30 μM; read-out: Emax (% ACh maximum at 30 μM)
MEASURED_ENDPOINT: Emax at 30 µM (%)

[
  {
    "MOLECULE": "Cc1cnccc1Nc1cnc2c(c1)CN(c1nn3cnnc3cc1C)CC2 [Compound 364]",
    "Emax at 30 µM, %": 83
  },
  {
    "MOLECULE": "COCc1c(C)c(N2CCc3ncc(C(F)(F)F)cc3C2)nn2cnnc12 [Compound 350]",
    "Emax at 30 µM, %": 77
  }
]

P = Cc1c(N2CCc3ncc(N4CCOC(c5ccccn5)C4)cc3C2)nn2c(C(F)(F)F)nnc2c1C (stereo not shown) [Compound 327]
Q = Cc1cc2nnc(C(F)(F)F)n2nc1N1CCc2ncc(N3CCOc4ncccc43)cc2C1 [Compound 324]
Inquiry: Which one would you say has the larger Emax at 30 µM value: P , or Q ? Respond using the label that marks the chosen record.
Reply text: Q

Reference for the values: patent US20250002507A1
